settings: in ethanol, 318.15 K
property: solubility (mole fraction)

Could you share which solubility (mole fraction) value was measured for `OC[C@H]1O[C@@H](c2ccc(Cl)c(Cc3ccc(O[C@H]4CCOC4)cc3)c2)[C@H](O)[C@@H](O)[C@@H]1O` ?
2.43e-05

* * *

settings: in n-butanol, 303.15 K
property: solubility (mole fraction)
Keep it simple and answer with nothing but the number.

Could you share which solubility (mole fraction) value was measured for `OC[C@H]1O[C@@H](c2ccc(Cl)c(Cc3ccc(O[C@H]4CCOC4)cc3)c2)[C@H](O)[C@@H](O)[C@@H]1O` ?
1.2e-05

* * *

settings: in acetonitrile, 318.15 K
property: solubility (mole fraction)

Could you share which solubility (mole fraction) value was measured for `OC[C@H]1O[C@@H](c2ccc(Cl)c(Cc3ccc(O[C@H]4CCOC4)cc3)c2)[C@H](O)[C@@H](O)[C@@H]1O` ?
8.16e-06

* * *

settings: in methanol, 278.15 K
property: solubility (mole fraction)
Keep it simple and answer with nothing but the number.

Could you share which solubility (mole fraction) value was measured for `OC[C@H]1O[C@@H](c2ccc(Cl)c(Cc3ccc(O[C@H]4CCOC4)cc3)c2)[C@H](O)[C@@H](O)[C@@H]1O` ?
1.77e-05

* * *

details: in DMF, 318.15 K
property: solubility (mole fraction)

Could you share which solubility (mole fraction) value was measured for `OC[C@H]1O[C@@H](c2ccc(Cl)c(Cc3ccc(O[C@H]4CCOC4)cc3)c2)[C@H](O)[C@@H](O)[C@@H]1O` ?
0.00171

* * *

settings: in n-propanol, 308.15 K
property: solubility (mole fraction)
Keep it simple and answer with nothing but the number.

Could you share which solubility (mole fraction) value was measured for `OC[C@H]1O[C@@H](c2ccc(Cl)c(Cc3ccc(O[C@H]4CCOC4)cc3)c2)[C@H](O)[C@@H](O)[C@@H]1O` ?
1.04e-05

* * *

settings: in n-butanol, 313.15 K
property: solubility (mole fraction)
Keep it simple and answer with nothing but the number.

Could you share which solubility (mole fraction) value was measured for `OC[C@H]1O[C@@H](c2ccc(Cl)c(Cc3ccc(O[C@H]4CCOC4)cc3)c2)[C@H](O)[C@@H](O)[C@@H]1O` ?
2.21e-05

* * *

settings: in methanol, 293.15 K
property: solubility (mole fraction)
Keep it simple and answer with nothing but the number.

Could you share which solubility (mole fraction) value was measured for `OC[C@H]1O[C@@H](c2ccc(Cl)c(Cc3ccc(O[C@H]4CCOC4)cc3)c2)[C@H](O)[C@@H](O)[C@@H]1O` ?
3.65e-05

* * *

settings: in ethylene glycol, 298.15 K
property: solubility (mole fraction)
Keep it simple and answer with nothing but the number.

Could you share which solubility (mole fraction) value was measured for `OC[C@H]1O[C@@H](c2ccc(Cl)c(Cc3ccc(O[C@H]4CCOC4)cc3)c2)[C@H](O)[C@@H](O)[C@@H]1O` ?
3.41e-05

* * *

conditions: in ethyl acetate, 278.15 K
property: solubility (mole fraction)
Keep it simple and answer with nothing but the number.

Could you share which solubility (mole fraction) value was measured for `OC[C@H]1O[C@@H](c2ccc(Cl)c(Cc3ccc(O[C@H]4CCOC4)cc3)c2)[C@H](O)[C@@H](O)[C@@H]1O` ?
7.16e-07

* * *

conditions: in ethyl acetate, 318.15 K
property: solubility (mole fraction)
Keep it simple and answer with nothing but the number.

Could you share which solubility (mole fraction) value was measured for `OC[C@H]1O[C@@H](c2ccc(Cl)c(Cc3ccc(O[C@H]4CCOC4)cc3)c2)[C@H](O)[C@@H](O)[C@@H]1O` ?
6.89e-06

* * *

conditions: in ethanol, 298.15 K
property: solubility (mole fraction)
Keep it simple and answer with nothing but the number.

Could you share which solubility (mole fraction) value was measured for `OC[C@H]1O[C@@H](c2ccc(Cl)c(Cc3ccc(O[C@H]4CCOC4)cc3)c2)[C@H](O)[C@@H](O)[C@@H]1O` ?
8.45e-06

* * *

settings: in ethanol, 308.15 K
property: solubility (mole fraction)
Keep it simple and answer with nothing but the number.

Could you share which solubility (mole fraction) value was measured for `OC[C@H]1O[C@@H](c2ccc(Cl)c(Cc3ccc(O[C@H]4CCOC4)cc3)c2)[C@H](O)[C@@H](O)[C@@H]1O` ?
1.4e-05

* * *

settings: in methanol, 303.15 K
property: solubility (mole fraction)
Keep it simple and answer with nothing but the number.

Could you share which solubility (mole fraction) value was measured for `OC[C@H]1O[C@@H](c2ccc(Cl)c(Cc3ccc(O[C@H]4CCOC4)cc3)c2)[C@H](O)[C@@H](O)[C@@H]1O` ?
5.54e-05

* * *

conditions: in formamide, 308.15 K
property: solubility (mole fraction)
Keep it simple and answer with nothing but the number.

Could you share which solubility (mole fraction) value was measured for `OC[C@H]1O[C@@H](c2ccc(Cl)c(Cc3ccc(O[C@H]4CCOC4)cc3)c2)[C@H](O)[C@@H](O)[C@@H]1O` ?
0.000202

* * *

conditions: in methanol, 313.15 K
property: solubility (mole fraction)
Keep it simple and answer with nothing but the number.

Could you share which solubility (mole fraction) value was measured for `OC[C@H]1O[C@@H](c2ccc(Cl)c(Cc3ccc(O[C@H]4CCOC4)cc3)c2)[C@H](O)[C@@H](O)[C@@H]1O` ?
8.53e-05

* * *

details: in ethylene glycol, 278.15 K
property: solubility (mole fraction)
Keep it simple and answer with nothing but the number.

Could you share which solubility (mole fraction) value was measured for `OC[C@H]1O[C@@H](c2ccc(Cl)c(Cc3ccc(O[C@H]4CCOC4)cc3)c2)[C@H](O)[C@@H](O)[C@@H]1O` ?
1.16e-05

* * *

details: in ethanol, 283.15 K
property: solubility (mole fraction)
Keep it simple and answer with nothing but the number.

Could you share which solubility (mole fraction) value was measured for `OC[C@H]1O[C@@H](c2ccc(Cl)c(Cc3ccc(O[C@H]4CCOC4)cc3)c2)[C@H](O)[C@@H](O)[C@@H]1O` ?
3.77e-06

* * *

details: in formamide, 303.15 K
property: solubility (mole fraction)

Could you share which solubility (mole fraction) value was measured for `OC[C@H]1O[C@@H](c2ccc(Cl)c(Cc3ccc(O[C@H]4CCOC4)cc3)c2)[C@H](O)[C@@H](O)[C@@H]1O` ?
0.000174

* * *

conditions: in ethanol, 303.15 K
property: solubility (mole fraction)
Keep it simple and answer with nothing but the number.

Could you share which solubility (mole fraction) value was measured for `OC[C@H]1O[C@@H](c2ccc(Cl)c(Cc3ccc(O[C@H]4CCOC4)cc3)c2)[C@H](O)[C@@H](O)[C@@H]1O` ?
1.1e-05

* * *

settings: in DMF, 283.15 K
property: solubility (mole fraction)
Keep it simple and answer with nothing but the number.

Could you share which solubility (mole fraction) value was measured for `OC[C@H]1O[C@@H](c2ccc(Cl)c(Cc3ccc(O[C@H]4CCOC4)cc3)c2)[C@H](O)[C@@H](O)[C@@H]1O` ?
0.00124

* * *

details: in n-propanol, 293.15 K
property: solubility (mole fraction)
Keep it simple and answer with nothing but the number.

Could you share which solubility (mole fraction) value was measured for `OC[C@H]1O[C@@H](c2ccc(Cl)c(Cc3ccc(O[C@H]4CCOC4)cc3)c2)[C@H](O)[C@@H](O)[C@@H]1O` ?
4.54e-06

* * *

details: in DMF, 293.15 K
property: solubility (mole fraction)
Keep it simple and answer with nothing but the number.

Could you share which solubility (mole fraction) value was measured for `OC[C@H]1O[C@@H](c2ccc(Cl)c(Cc3ccc(O[C@H]4CCOC4)cc3)c2)[C@H](O)[C@@H](O)[C@@H]1O` ?
0.00134

* * *

conditions: in ethylene glycol, 303.15 K
property: solubility (mole fraction)
Keep it simple and answer with nothing but the number.

Could you share which solubility (mole fraction) value was measured for `OC[C@H]1O[C@@H](c2ccc(Cl)c(Cc3ccc(O[C@H]4CCOC4)cc3)c2)[C@H](O)[C@@H](O)[C@@H]1O` ?
4.21e-05

* * *

conditions: in ethyl acetate, 313.15 K
property: solubility (mole fraction)
Keep it simple and answer with nothing but the number.

Could you share which solubility (mole fraction) value was measured for `OC[C@H]1O[C@@H](c2ccc(Cl)c(Cc3ccc(O[C@H]4CCOC4)cc3)c2)[C@H](O)[C@@H](O)[C@@H]1O` ?
5.56e-06

* * *

settings: in formamide, 278.15 K
property: solubility (mole fraction)
Keep it simple and answer with nothing but the number.

Could you share which solubility (mole fraction) value was measured for `OC[C@H]1O[C@@H](c2ccc(Cl)c(Cc3ccc(O[C@H]4CCOC4)cc3)c2)[C@H](O)[C@@H](O)[C@@H]1O` ?
8.05e-05

* * *

settings: in n-butanol, 308.15 K
property: solubility (mole fraction)
Keep it simple and answer with nothing but the number.

Could you share which solubility (mole fraction) value was measured for `OC[C@H]1O[C@@H](c2ccc(Cl)c(Cc3ccc(O[C@H]4CCOC4)cc3)c2)[C@H](O)[C@@H](O)[C@@H]1O` ?
1.62e-05

* * *

conditions: in ethyl acetate, 293.15 K
property: solubility (mole fraction)

Could you share which solubility (mole fraction) value was measured for `OC[C@H]1O[C@@H](c2ccc(Cl)c(Cc3ccc(O[C@H]4CCOC4)cc3)c2)[C@H](O)[C@@H](O)[C@@H]1O` ?
1.97e-06
